- TARGET ENTITY: Lp-PLA2 (Homo sapiens)
- Construct: aliquoted and thawed 40 μL of pooled human plasma was previously added; from tissue; host or cells: pooled human plasma
- Sequence (Q13093 22-441): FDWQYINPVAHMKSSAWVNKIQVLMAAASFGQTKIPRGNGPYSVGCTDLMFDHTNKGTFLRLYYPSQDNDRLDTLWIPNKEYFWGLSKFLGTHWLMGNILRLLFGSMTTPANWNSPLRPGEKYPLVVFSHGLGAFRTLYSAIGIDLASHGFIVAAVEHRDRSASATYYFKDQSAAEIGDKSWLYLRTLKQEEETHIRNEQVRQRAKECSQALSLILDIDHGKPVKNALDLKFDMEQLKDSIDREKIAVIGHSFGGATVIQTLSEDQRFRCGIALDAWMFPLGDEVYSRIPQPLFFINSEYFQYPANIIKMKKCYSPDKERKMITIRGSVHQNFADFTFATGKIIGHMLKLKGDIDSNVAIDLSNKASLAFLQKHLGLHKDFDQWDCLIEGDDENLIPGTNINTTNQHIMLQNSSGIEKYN
- ASSAY DETAILS: Lipoprotein-associated phospholipase A2 (Lp-PLA2) human plasma assay (Thio-PAF assay)
- Assay type: biochemical
- EXPERIMENTAL CONDITIONS: Lp-PLA2 human plasma assay (Thio-PAF), pooled human plasma, 30-min pre-incubation at room temperature
# label = Y if IC50 < 6 nM else N

Study these solved cases before continuing.
{"COMPOUND": "Cc1cc(Oc2ccc(COc3cc4n(c(=O)n3)CC35CCC(CC3)N45)cc2F)ccn1 [Example 120]", "ASSIGNED LABEL": "N"}
{"COMPOUND": "O=c1nc(OCCc2ccc(Oc3ccnc(C(F)(F)F)c3)c(F)c2)cc2n1C[C@]13CO[C@H](CN21)C3 [Example 156]", "ASSIGNED LABEL": "Y"}
{"COMPOUND": "Cc1c(OCc2cc(F)c(Oc3ccnc(C(F)(F)F)c3)c(F)c2)nc(=O)n2c1N1C[C@@H]3C[C@]1(CO3)C2 [Example 92]", "ASSIGNED LABEL": "Y"}
{"COMPOUND": "Cc1cc(Oc2c(F)cc(COc3cc4n(c(=O)n3)C[C@]35CO[C@H](CN43)C5)cc2F)ccn1 [Example 10]", "ASSIGNED LABEL": "N"}

We now examine a further compound.
Criterion: IC50 strictly below 6 nM. Is it met by N#Cc1cc(COc2cc3n(c(=O)n2)CC24CC(CN32)C4)ccc1Oc1cccc(C(F)(F)F)c1 [Example 42] ?
Y
